Target: UniProt P51449
Sequence (P51449 1-497 isoform P51449-2): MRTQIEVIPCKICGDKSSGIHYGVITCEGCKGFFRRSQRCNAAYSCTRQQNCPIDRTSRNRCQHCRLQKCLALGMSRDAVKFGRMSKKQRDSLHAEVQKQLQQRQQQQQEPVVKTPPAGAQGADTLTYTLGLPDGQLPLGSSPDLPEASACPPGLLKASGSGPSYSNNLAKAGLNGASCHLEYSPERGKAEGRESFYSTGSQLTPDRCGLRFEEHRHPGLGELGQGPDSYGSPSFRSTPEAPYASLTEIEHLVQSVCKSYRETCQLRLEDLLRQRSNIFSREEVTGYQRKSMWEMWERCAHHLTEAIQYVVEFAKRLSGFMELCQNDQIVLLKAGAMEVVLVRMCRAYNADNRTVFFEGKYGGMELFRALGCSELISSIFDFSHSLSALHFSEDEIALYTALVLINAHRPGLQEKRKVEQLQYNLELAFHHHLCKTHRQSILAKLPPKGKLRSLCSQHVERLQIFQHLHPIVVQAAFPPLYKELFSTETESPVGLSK
Assay: Jurkat reporter test (human IL-17 ROR response element luciferase reporter)
Assay type: cell-based
Settings: Jurkat, read-out: luminescence level inhibitory rate (%) at test compound 3 μM
Structures can show the parent of a compound that is named as a salt.
EXPERIMENTAL_ENDPOINT: inhibition at 3 µM (%)
One number for each entry, in %.

Use the examples below as a reference point.
> print(dat)
                                   compound     test.target  assay.result
1  COCc1ccc([C@@H](NC(=O)CCC(=O)O)C(=O)Nc2cc(F)c([Si](C)(C)C)c(F)c2)cc1  UniProt P51449          99.7
2  COCc1ccc([C@@H](NC(=O)CN2CCOCC2)C(=O)Nc2ccc([Si](C)(C)C)c(F)c2)cc1 [Example 97, hydrochloride]  UniProt P51449          98.3
3  COCc1ccc([C@@H](NC(=O)CC(C)(C)C(=O)O)C(=O)Nc2cc(F)c([Si](C)(C)C)c(F)c2)cc1  UniProt P51449           100
4  COc1ccc(C(NC(=O)Cn2ncc3ccccc32)C(=O)Nc2cc(F)c([Si](C)(C)C)cc2F)cc1 (stereo not shown)  UniProt P51449           101
5  COc1ccc(C(NC(=O)C2CNC(=O)C2)C(=O)Nc2ccc([Si](C)(C)C)c(C#N)c2)cc1 (stereo not shown)  UniProt P51449            96
6  COCc1ccc([C@@H](NC(=O)[C@@H]2CNC(=O)C2)C(=O)Nc2cc(F)c([Si](C)(C)C)c(F)c2)cc1  UniProt P51449           100

Now, please, on to the next compound.
**Q:** Report inhibition at 3 µM, nothing else, for this compound: COCc1ccc(C(NC(=O)Cc2cc(O)no2)C(=O)Nc2cc(F)c([Si](C)(C)C)c(F)c2)cc1 (stereo not shown)
**A:** 100

###

Target: UniProt P51449
Assay: Jurkat reporter test (human IL-17 ROR response element luciferase reporter)
Type: cell-based
Conditions: Jurkat, read-out: luminescence level inhibitory rate (%) at test compound 3 μM
Task for the reader: assign each of the following compounds its reported inhibition at 3 µM.
Numbers only, in %.

Use the examples below as a reference point.
> print(dat)
                                   compound  assay.result
1  COCc1ccc([C@@H](NC(=O)CN2C(=O)CNC2=O)C(=O)Nc2ccc([Si](C)(C)C)c(F)c2)cc1 [Example 62]          97.8
2  COCc1ccc([C@@H](NC(=O)[C@H]2CNC(=O)C2)C(=O)Nc2cc(F)c([Si](C)(C)C)c(F)c2)cc1 [Example 68]          98.7
3  COCc1ccc([C@@H](NC(=O)N2CC[C@@H](O)C2)C(=O)Nc2ccc([Si](C)(C)C)c(F)c2)cc1 [Example 66]          98.5

**Q:** Find inhibition at 3 µM for COCc1ccc([C@@H](NC(=O)CNC(C)=O)C(=O)Nc2ccc([Si](C)(C)C)c(F)c2)cc1 [Example 86] on UniProt P51449 and write it down.
**A:** 99.1

###

Target: RORγt (Homo sapiens)
Test: RORγt binding test (TR-FRET, fluorescent-labeled cholesterol)
Settings: read-out: binding inhibitory rate (%) of fluorescent-labeled cholesterol to RORγt at test compound 1 μM
EXPERIMENTAL_ENDPOINT: inhibition at 1 µM (%)
One number for each entry, in %.

> print(dat)
                                   compound           test.target  experimental.endpoint  assay.result
1  COCc1ccc([C@@H](NC(=O)[C@H]2CNC(=O)C2)C(=O)Nc2cc(F)c([Si](C)(C)C)cc2F)cc1  RORγt (Homo sapiens)     inhibition at 1 µM           102
2  COc1ccc(C(C(=O)Nc2ccc([Si](C)(C)C)c(Cl)c2)N(C)C(=O)c2cc(O)no2)cc1 (stereo not shown)  RORγt (Homo sapiens)     inhibition at 1 µM           103
3  COc1ccc(C(NC(=O)Cn2cnc3ccccc32)C(=O)Nc2ccc([Si](C)(C)C)cc2)cc1 (stereo not shown)  RORγt (Homo sapiens)     inhibition at 1 µM          99.6

Now, please, on to the next compound.
**Q:** Report inhibition at 1 µM, nothing else, for this compound: COCc1ccc([C@H](C(=O)Nc2cc(F)c([Si](C)(C)C)c(F)c2)N(C)C(=O)c2cc(O)no2)cc1
**A:** 103

###

Task for the reader: assign each of the following compounds its reported inhibition at 3 µM.
Molecular target: RORγt (Homo sapiens, UniProt P51449)
Test: Jurkat reporter test (human IL-17 ROR response element luciferase reporter)
Format: cell-based
Conditions: Jurkat, read-out: luminescence level inhibitory rate (%) at test compound 3 μM
Numbers only, in %.

> print(dat)
                                   compound  u  assay.result
1  COCc1ccc([C@@H](NC(=O)C2CC2(F)F)C(=O)Nc2ccc([Si](C)(C)C)c(F)c2)cc1 (stereo partly shown)  %           100
2  COc1ccc(C(NC(=O)N2CCC(O)C2)C(=O)Nc2ccc([Si](C)(C)C)c(F)c2)cc1 (stereo not shown)  %          99.2
3  COCc1ccc([C@@H](NC(=O)CS(C)(=O)=O)C(=O)Nc2ccc([Si](C)(C)C)c(F)c2)cc1  %          98.3

Now, please, on to the next compound.
**Q:** Report inhibition at 3 µM, nothing else, for this compound: COCc1ccc([C@H](C(=O)Nc2cc(F)c([Si](C)(C)C)c(F)c2)N(C)C(=O)c2cc(O)no2)cc1
**A:** 99.7

###

Biological target: RORγt (Homo sapiens)
Sequence (P51449 1-497 isoform P51449-2): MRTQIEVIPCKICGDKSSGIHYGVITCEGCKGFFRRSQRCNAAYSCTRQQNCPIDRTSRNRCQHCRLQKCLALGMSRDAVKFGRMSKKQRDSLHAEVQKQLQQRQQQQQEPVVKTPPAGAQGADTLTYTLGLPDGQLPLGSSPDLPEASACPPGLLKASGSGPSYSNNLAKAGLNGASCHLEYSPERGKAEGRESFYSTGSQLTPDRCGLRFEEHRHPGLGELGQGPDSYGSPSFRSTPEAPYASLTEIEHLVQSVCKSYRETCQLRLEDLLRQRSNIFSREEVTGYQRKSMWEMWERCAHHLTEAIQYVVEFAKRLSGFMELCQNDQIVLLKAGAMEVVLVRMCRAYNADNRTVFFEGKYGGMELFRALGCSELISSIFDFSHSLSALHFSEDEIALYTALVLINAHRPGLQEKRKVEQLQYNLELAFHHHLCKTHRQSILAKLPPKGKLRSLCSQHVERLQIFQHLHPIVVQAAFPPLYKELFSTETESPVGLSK
Experiment: Jurkat reporter test (human IL-17 ROR response element luciferase reporter)
Assay type: cell-based
Settings: Jurkat, read-out: luminescence level inhibitory rate (%) at test compound 3 μM
Task for the reader: assign each of the following molecules its reported inhibition at 3 µM.

> print(dat)
                                   molecule  assay.result
1  COCc1ccc([C@@H](NC(=O)c2cc(O)no2)C(=O)Nc2cc(F)c([Si](C)(C)C)cc2F)cc1 [Example 98]         99.2%
2  COCc1ccc([C@@H](NC(=O)Cn2nc(C)ccc2=O)C(=O)Nc2cc(F)c([Si](C)(C)C)c(F)c2)cc1 [Example 61]          100%
3  COCc1ccc([C@@H](NC(=O)Cn2cnccc2=O)C(=O)Nc2cc(F)c([Si](C)(C)C)cc2F)cc1 [Example 57]         98.9%
4  COc1ccc(C(NC(=O)C2CNC(=O)C2)C(=O)Nc2ccc([Si](C)(C)C)c(F)c2)cc1 (stereo not shown) [Example 28]           98%

Each molecule below has a reported value. Please supply its inhibition at 3 µM.
1. C[Si](C)(C)c1ccc(NC(=O)C(NC(=O)c2cc(O)no2)C2CCC(F)(F)CC2)cc1F (stereo not shown) [Example 4]
2. COc1ccc(C(NC(=O)C2CNC(=O)C2)C(=O)Nc2cc(F)c([Si](C)(C)C)c(F)c2)cc1 (stereo not shown) [Example 37]
3. COCc1ccc([C@@H](NC(=O)[C@@H]2CNC(=O)C2)C(=O)Nc2cc(F)c([Si](C)(C)C)cc2F)cc1 [Example 51]

**A:**
1: 97%; 2: 98.5%; 3: 98%
